test system: MKNK2; conditions: concentration: 1 μM, replicates: in singlicate; n = 1;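 also: KINOMEscan kinase panel screen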
Lab note: compare %Inh with 20%, writing fulfilled if less and not fulfilled if equal or more.

Query block: Please let me know if COc1ccc(Nc2nccc(N3CCC(NC(=O)Nc4cccc(C(C)=O)c4)C3)n2)cc1 (stereo not drawn) [GSK1379731] shows %Inh below 20%.
Result block: fulfilled

Query block: Please let me know if COc1cc2c(cc1OCCN1CCN(C)CC1)ncc1c3ccc(C#N)cc3[nH]c21 shows %Inh below 20%.
Result block: not fulfilled

Query block: Please let me know if O=C(Nc1cccc(-c2nn3ncccc3c2-c2ccnc(Nc3cccc(C(F)(F)F)c3)n2)c1)c1c(F)cccc1F [GSK299495] shows %Inh below 20%.
Result block: not fulfilled

Query block: Please let me know if O=c1cc(N2CCOCC2)nc2n(Cc3cccc(F)c3)ccn12 [GSK2297430] shows %Inh below 20%.
Result block: fulfilled

Query block: Please let me know if CN(C1=C(c2ccccc2)C(=O)NC1=O)c1ccccc1 [SB-334860] shows %Inh below 20%.
Result block: fulfilled

Query block: Please let me know if Cl.Oc1cccc(Nc2ccnc3cc(-c4ccncc4)ccc23)c1 [GW494601] shows %Inh below 20%.
Result block: not fulfilled

Others:
Query block: Please let me know if COc1cc(Nc2nccc(N3CCC(NC(=O)c4cccc(NC(C)=O)c4)C3)n2)cc(OC)c1OC (stereo not drawn) [GSK1379754] shows %Inh below 20%.
Result block: not fulfilled

Query block: Please let me know if O=c1cc(N2CCOCC2)nc2n(Cc3cccc(C(F)(F)F)c3)ccn12 [GSK2297543] shows %Inh below 20%.
Result block: fulfilled

Query block: Please let me know if COc1cc2ncn(-c3cc(OCc4sccc4Cl)c(C(N)=O)s3)c2cc1OC [GSK448459] shows %Inh below 20%.
Result block: fulfilled

* * *

test system: CSF1R; conditions: concentration: 1 μM, replicates: in singlicate; n = 1
PROPERTY_NAME: %Inh
Field: value (include unit after the number)

Sample answers from the record:
What the record says about O=c1cc(N2CCOCC2)nc2n(Cc3cccc(Cl)c3Cl)c(C3CC3)nn12 [GSK2358994] : %Inh is 0%

What the record says about COc1ccc(CNC(=O)NC2CCN(c3ccnc(Nc4ccc(OC)cc4)n3)C2)cc1 (stereo not shown) [GSK1379727] : %Inh is 0%

What the record says about CN(C1=C(c2ccccc2)C(=O)NC1=O)c1ccccc1 [SB-334860] : %Inh is 18%

What the record says about O=C(Nc1n[nH]c2cc(-c3cccc(F)c3)ccc12)C1CC1 [SB-735464] : %Inh is 2%

Others:
What the record says about CC(C)Oc1ccc2c(-c3ccnc(Nc4ccc(N5CCN(C)CC5)cc4)n3)cnn2n1 [GW696155] : %Inh is 65%

What the record says about COc1ccc(S(=O)(=O)NC2CCN(c3cc(C)nc(Nc4cccc(C#N)c4)n3)CC2)cc1.O=C(O)C(F)(F)F [GSK1653539] : %Inh is 1%

What the record says about COc1cc(Nc2nccc(N3CCC(NC(=O)c4cccc(NC(C)=O)c4)C3)n2)cc(OC)c1OC (stereo not shown) [GSK1379754] : %Inh is 38%

* * *

system: SGK2; conditions: concentration: 1 μM, replicates: in singlicate; n = 1
PROPERTY_NAME: %Inh (%)
The response must be a number in % with no trailing unit.

Sample answers from the record:
What the record says about O=C(NCCNc1ccnc(Nc2ccc(F)cc2)n1)c1cc2ccccc2s1 [GSK1379874] : %Inh is 0

What the record says about Cc1nnc(-c2ccc3occ(-c4ccc(C(C)O)cc4)c3c2)o1 (stereo not shown) : %Inh is 0

What the record says about Cn1cc(-c2ccc3c(c2)CCN3C(=O)Cc2ccccc2Cl)c2c(N)ncnc21 [GSK2608885] : %Inh is 0

Next, consider the following compound.
What the record says about COc1ccc(COc2cc(-n3cnc4ccccc43)sc2C(N)=O)cc1 [GSK1024304] : %Inh is 10

* * *

tested on: PRKX; conditions: concentration: 1 μM, replicates: in singlicate; n = 1
Measured %Inh, listed per entry for reference.
The response must be a number in % with no trailing unit.

Sample answers from the record:
What the record says about CNc1ncnc2[nH]ncc12 : %Inh is 0

What the record says about c1ccc(-c2cc(-c3c[nH]nc3-c3ccccn3)ccn2)cc1 : %Inh is 0

What the record says about O=C(c1ccc(-c2cc(-c3c[nH]nc3-c3ccccn3)ccn2)cc1)N1CCOCC1 : %Inh is 0

What the record says about O=C(NOCC1CC1)c1ccc(F)c(F)c1Nc1ccc(I)cc1Cl : %Inh is 0

Next, consider the following molecule.
What the record says about Cc1nnc(-c2ccc3ncc(-c4ccc(S(C)=O)cc4)n3c2)o1 (centres unmarked) : %Inh is 19

* * *

Measured %Inh, listed per entry for reference.
test system: PCTK2; construct: gene CDK17; details: concentration: 1 μM, replicates: in singlicate; n = 1
The response must be a number in % with no trailing unit.

Sample answers from the record:
What the record says about COc1cc2c(cc1OCCN1CCN(C)CC1)ncc1c3ccc(C#N)cc3[nH]c21 : %Inh is 12

What the record says about O=c1cc(N2CCOCC2)nc2n(Cc3cccc(Cl)c3Cl)c(C3CC3)nn12 : %Inh is 0

What the record says about [2H]C([2H])(c1cccc(C(F)(F)F)c1C)n1ccn2c(=O)nc(N3CCOCC3)cc12 : %Inh is 0

What the record says about Cc1cccc(-c2nc(Nc3ccc4ncsc4c3)c3ccccc3n2)n1 : %Inh is 0

Next, consider the following compound.
What the record says about COc1cc2c(cc1OC[C@@H](O)CO)ncc1c3ccc(C#N)cc3[nH]c21 : %Inh is 0

* * *

Measured %Inh, listed per entry for reference.
system: WEE1; conditions: concentration: 1 μM, replicates: in singlicate; n = 1
The response must be a number in % with no trailing unit.

Sample answers from the record:
# lookup: O=C(Nc1cccc(-c2nn3ncccc3c2-c2ccnc(Nc3cccc(C(F)(F)F)c3)n2)c1)c1c(F)cccc1F on WEE1, %Inh = 2

# lookup: c1ccc(-c2n[nH]cc2-c2ccnc3ccccc23)nc1 on WEE1, %Inh = 9

Others:
# lookup: CN1c2ccc(NCc3ccc(F)cc3)cc2-c2c(cnn2C)S1(=O)=O on WEE1, %Inh = 0

# lookup: CN(C(=O)c1ccc(-c2cc(-c3c[nH]nc3-c3ccccn3)ccn2)cc1)C1CCOCC1 on WEE1, %Inh = 0

# lookup: CC(C)Oc1ccc2c(-c3ccnc(Nc4ccc(N5CCN(C)CC5)cc4)n3)cnn2n1 on WEE1, %Inh = 30

# lookup: Cc1nnc(-c2ccc3occ(-c4ccc(C(C)O)cc4)c3c2)o1 (stereo not shown) on WEE1, %Inh = 8

# lookup: O=c1cc(N2CCOCC2)nc2n(Cc3cccc(Cl)c3Cl)c(C3CC3)nn12 on WEE1, %Inh = 0

* * *

system: MARK2; conditions: concentration: 1 μM, replicates: in singlicate; n = 1
Measured %Inh, listed per entry for reference.
The response must be a number in % with no trailing unit.

Sample answers from the record:
What the record says about O=C1NC(=O)C(N2CCc3ccccc32)=C1c1cccc(Cl)c1 : %Inh is 0

What the record says about O=c1cc(N2CCOCC2)nc2n(Cc3cccc(C(F)(F)F)c3)ccn12 : %Inh is 0

What the record says about CCc1ccnc(/C=C/c2n[nH]c3cc(Sc4ccccc4C(=O)NC)ccc23)c1 : %Inh is 4

Next, consider the following compound.
What the record says about COc1ccc(S(=O)(=O)NC2CCN(c3cc(C)nc(Nc4cccc(C#N)c4)n3)CC2)cc1.O=C(O)C(F)(F)F : %Inh is 12

* * *

tested on: MTOR; conditions: concentration: 1 μM, replicates: in singlicate; n = 1
Measured %Inh, listed per entry for reference.
The response must be a number in % with no trailing unit.

# lookup: COc1ccc(S(=O)(=O)NC2CCN(c3cc(C)nc(Nc4cccc(C#N)c4)n3)CC2)cc1.O=C(O)C(F)(F)F on MTOR, %Inh = 28

# lookup: Cc1cn2c(=O)cc(N3CCOCC3)nc2n1Cc1cccc(Cl)c1Cl on MTOR, %Inh = 37

# lookup: Cc1cccc(-c2nc(Nc3ccc4ncsc4c3)c3ccccc3n2)n1 on MTOR, %Inh = 0

# lookup: Fc1ccc(-c2nn3c(OCC(F)(F)F)cccc3c2-c2ccncc2)cc1 on MTOR, %Inh = 35

Next, consider the following compound.
# lookup: COc1ccc(Nc2nccc(N3CCC(NC(=O)Nc4cc(C)ccc4C)C3)n2)cc1 (centres unmarked) on MTOR, %Inh = 11

* * *

system: CSK; conditions: concentration: 1 μM, replicates: in singlicate; n = 1
PROPERTY_NAME: %Inh (%)
The response must be a number in % with no trailing unit.

Sample answers from the record:
What the record says about COc1cc2c(cc1OCCN1CCN(C)CC1)ncc1c3ccc(C#N)cc3[nH]c21 : %Inh is 0

What the record says about O=C(Nc1n[nH]c2cc(-c3cccc(F)c3)ccc12)C1CC1 [SB-735464] : %Inh is 2

What the record says about O=C(c1ccc(-c2cc(-c3c[nH]nc3-c3ccccn3)ccn2)cc1)N1CCOCC1 [GW812171] : %Inh is 51

What the record says about Nc1nccc(-c2c(-c3ccc(F)cc3)ncn2C2CCN(CC(F)(F)F)CC2)n1 [SB-236560] : %Inh is 0

Others:
What the record says about NCCNS(=O)(=O)c1ccc(-c2ccnc3[nH]ccc23)cc1 [GSK977617] : %Inh is 0

What the record says about Cl.Nc1ncnc2occ(-c3ccc(NC(=O)Nc4cc(C(F)(F)F)ccc4F)cc3)c12 [SB-707548] : %Inh is 20

What the record says about CN(C(=O)c1ccc(-c2cc(-c3c[nH]nc3-c3ccccn3)ccn2)cc1)C1CCOCC1 [GW810083] : %Inh is 0

What the record says about CNc1ncnc2[nH]ncc12 [SKF-18355] : %Inh is 0

What the record says about Cc1nnc(-c2ccc3ncc(-c4ccc(S(C)=O)cc4)n3c2)o1 (stereo not drawn) : %Inh is 0
